meta.source: ChEMBL document CHEMBL1143434

- Target or system: Cyclin-dependent kinase 2 (Homo sapiens, UniProt P24941)
- Protocol description: Inhibition of CDK2/cyclin A by IMAP florescence polarization assay
Metric: IC50

CC(C)(C)c1cnc(CSc2cnc(N[C@H]3CC[C@H](N)CC3)s2)o1
20 nM
CC(C)(C)c1cnc(CSc2cnc(N[C@H]3CC[C@@H](N)CC3)s2)o1
503 nM
CC(C)(C)c1cnc(CSc2cnc(N)s2)o1
690 nM
CC(C)(C)c1cnc(CSc2cnc(N[C@H]3CC[C@H](O)CC3)s2)o1
7 nM
CC(C)(C)c1cnc(CSc2cnc(NC3CCCC(N)C3)s2)o1 (stereo not given)
158 nM
CC(C)(C)c1cnc(CSc2cnc(NC3CCNCC3)s2)o1
538 nM
CC(C)(C)c1cnc(CSc2cnc(NCC3CCNCC3)s2)o1
229 nM
CC(C)(C)c1cnc(CSc2cnc(NC3CCCC(O)C3)s2)o1 (stereo not given)
28 nM
CC(C)(C)c1cnc(CSc2cnc(NC3CCCCC3)s2)o1
9 nM
CC(C)(C)c1cnc(CSc2cnc(NCC3CCCCC3)s2)o1
168 nM

###

- Protocol description: AUC in CD1 mouse at 5 mg/kg, iv
- Type: ADME, organism-based
- Parameters: dose 5 mg/kg, route intravenous
- Condition label: plasma
Metric: AUC (ng·h/mL)

CC(C)(C)c1cnc(CSc2cnc(NC(=O)C3CCNCC3)s2)o1
1510
CC(C)(C)c1cnc(CSc2cnc(N[C@H]3CC[C@H](N)CC3)s2)o1
1160

###

- Protocol description: AUC in CD1 mouse at 10 mg/kg, po
- Assay type: ADME, organism-based
- Design: dose 10 mg/kg, route oral
- Condition label: plasma
Examples of molecules with documented AUC follow.
Metric: AUC

CC(C)(C)c1cnc(CSc2cnc(N[C@H]3CC[C@H](N)CC3)s2)o1
1430 ng·h/mL
CC(C)(C)c1cnc(CSc2cnc(NC(=O)C3CCNCC3)s2)o1
434 ng·h/mL

###

- Protocol description: Bioavailability in CD1 mouse at 10 mg/kg, po
- Type: ADME, organism-based
- Condition label: in vivo
Below, each of the compounds is paired with its reported bioavailability value.
Metric: bioavailability (%)

CC(C)(C)c1cnc(CSc2cnc(NC(=O)C3CCNCC3)s2)o1
14
CC(C)(C)c1cnc(CSc2cnc(N[C@H]3CC[C@H](N)CC3)s2)o1
62

###

- Protocol description: Metabolic stability in mouse liver microsomes at 1 uM after 30 mins
- Assay type: ADME, Microsome
- Condition label: read-out: Stability
Metric: remaining at 0.5 h, 1 µM

CC(C)(C)c1cnc(CSc2cnc(N[C@H]3CC[C@H](N)CC3)s2)o1
76%

###

- Protocol description: Metabolic stability in human liver microsomes at 1 uM after 60 mins
- Format: ADME, Microsome
- Condition label: read-out: Stability
Metric: remaining at 1 h, 1 µM (%)

CC(C)(C)c1cnc(CSc2cnc(N[C@H]3CC[C@H](N)CC3)s2)o1
53

###

- Protocol description: Half life in CD1 mouse at 30 mg/kg, po
- Type: ADME, organism-based
- Parameters: dose 30 mg/kg, route oral
- Condition label: in vivo
Metric: half-life

CC(C)(C)c1cnc(CSc2cnc(N[C@H]3CC[C@H](N)CC3)s2)o1
1.2 h

###

- Target or system: Cyclin-dependent kinase 9 (Homo sapiens)
- Sequence (P50750 whole entry): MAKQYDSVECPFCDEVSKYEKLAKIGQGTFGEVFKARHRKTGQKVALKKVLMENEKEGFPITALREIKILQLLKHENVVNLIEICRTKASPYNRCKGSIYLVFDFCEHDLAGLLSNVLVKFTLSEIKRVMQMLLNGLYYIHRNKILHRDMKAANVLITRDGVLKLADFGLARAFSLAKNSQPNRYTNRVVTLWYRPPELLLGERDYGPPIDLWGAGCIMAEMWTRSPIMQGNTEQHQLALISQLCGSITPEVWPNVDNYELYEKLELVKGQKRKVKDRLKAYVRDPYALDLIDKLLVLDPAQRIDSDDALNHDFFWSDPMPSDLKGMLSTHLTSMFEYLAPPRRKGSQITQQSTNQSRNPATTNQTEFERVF
- Protocol description: Inhibition of CDK9 in human HCT116 cells assessed as phosphor-ser2 level of RNA polymerase 2 after 16 hrs by high content cellular assay
Metric: IC50

CC(C)(C)c1cnc(CSc2cnc(NCC3CCNCC3)s2)o1
> 10 µM
CC(C)(C)c1cnc(CSc2cnc(NC3CCCC(N)C3)s2)o1 (stereo not given)
> 10 µM
CC(C)(C)c1cnc(CSc2cnc(N[C@H]3CC[C@H](N)CC3)s2)o1
0.355 µM
CC(C)(C)c1cnc(CSc2cnc(N[C@H]3CC[C@H](O)CC3)s2)o1
3.5 µM
CC(C)(C)c1cnc(CSc2cnc(N[C@H]3CC[C@@H](N)CC3)s2)o1
> 10 µM
CC(C)(C)c1cnc(CSc2cnc(NC3CCNCC3)s2)o1
> 10 µM
CC(C)(C)c1cnc(CSc2cnc(N)s2)o1
> 10 µM
CC(C)(C)c1cnc(CSc2cnc(NC3CCCCC3)s2)o1
> 10 µM
CC(C)(C)c1cnc(CSc2cnc(NC3CCCC(O)C3)s2)o1 (stereo not given)
> 10 µM
CC(C)(C)c1cnc(CSc2cnc(NCC3CCCCC3)s2)o1
> 10 µM
